Biological target: Cbl-b (Homo sapiens (Human))
Sequence (Q13191 36-427): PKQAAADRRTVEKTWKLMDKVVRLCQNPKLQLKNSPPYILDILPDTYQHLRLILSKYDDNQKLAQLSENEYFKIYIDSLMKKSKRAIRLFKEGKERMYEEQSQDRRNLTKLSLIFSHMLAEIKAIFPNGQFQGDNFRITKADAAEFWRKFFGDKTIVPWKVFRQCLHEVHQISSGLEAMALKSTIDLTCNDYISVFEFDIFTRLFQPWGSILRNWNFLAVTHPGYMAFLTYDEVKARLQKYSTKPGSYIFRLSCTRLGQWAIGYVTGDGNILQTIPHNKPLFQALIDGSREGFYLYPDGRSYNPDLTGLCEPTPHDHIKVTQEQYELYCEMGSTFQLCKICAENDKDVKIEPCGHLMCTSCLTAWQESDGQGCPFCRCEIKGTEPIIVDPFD
Assay: Cbl-b displacement assay (Cbl-b inhibition assay), Biological Example 1
Assay type: binding
Details: 0.125 nM Cbl-b final concentration (Low); read-out: Cbl-b activity IC50 (Low)
Quick list: IC50 per entry.

Q) GET /values?readout=IC50&system=Cbl-b (Homo sapiens (Human))&item= C[C@@H]1CN(Cc2cc3c(c(C(F)(F)F)c2)CN(c2cccc([C@]4(Cc5nncn5C)C[C@@H](CC#N)C4)c2)C3=O)CCC1(F)F
A) ≥ 20 nM

Q) How about this compound: C[C@@H]1CN(Cc2cc3c(c(C(F)(F)F)c2)CN(c2cccc([C@]4(Cc5nncn5C)C[C@@H](C#N)C4)c2)C3=O)C[C@H](C)O1
A) 2 to 5 nM

Q) How about this compound: Cn1cnnc1C[C@]1(c2cccc(N3Cc4c(cccc4C(F)(F)F)C3=O)c2)C[C@H](C#N)C1
A) ≥ 20 nM

Q) How about this compound: COCC1CCCCN(Cc2cc3c(c(C(F)(F)F)c2)CN(c2cccc([C@]4(Cc5nncn5C)C[C@@H](C#N)C4)c2)C3=O)C1 (some centres unmarked)
A) 2 to 5 nM

Q) How about this compound: C[C@@H]1CN(Cc2cc(C(=O)Nc3cccc([C@]4(Cc5nncn5C)C[C@@H](C#N)C4)c3)nc(C3CC3)n2)CCC1(F)F
A) < 1 nM

Q) How about this compound: C[C@H]1CCCN(Cc2cc3c(c(C(F)(F)F)c2)CN(c2cccc([C@]4(Cc5nncn5C)C[C@@H](C#N)C4)c2)C3=O)C1
A) < 1 nM

Q) How about this compound: Cn1cnnc1C[C@]1(c2cccc(N3Cc4c(cc(CN5CCC6CCC(C5)O6)cc4C(F)(F)F)C3=O)c2)C[C@H](C#N)C1 (some centres unmarked)
A) 2 to 5 nM

Q) How about this compound: CN(Cc1cc2c(c(C(F)(F)F)c1)CN(c1cccc([C@]3(Cc4nncn4C)C[C@@H](C#N)C3)c1)C2=O)C1CC(F)(F)C1
A) 2 to 5 nM

Q) How about this compound: CN(Cc1cc2c(c(C(F)(F)F)c1)CN(c1cccc([C@]3(Cc4nncn4C)C[C@@H](C#N)C3)c1)C2=O)C1CCC(F)(F)C1 (some centres unmarked)
A) 2 to 5 nM

Q) How about this compound: Cn1cnnc1C[C@]1(c2cccc(N3Cc4c(cc(CN5CCCOCC5)cc4C(F)(F)F)C3=O)c2)C[C@H](C#N)C1
A) 2 to 5 nM

Q) How about this compound: CCC1CN(Cc2cc3c(c(C(F)(F)F)c2)CN(c2cccc([C@]4(Cc5nncn5C)C[C@@H](C#N)C4)c2)C3=O)CCCO1 (some centres unmarked)
A) 2 to 5 nM

====

Test system: primary human total T-cells
Test: T-cell activation, IL-2 secretion, Biological Example 2
Type: cell-based
Settings: anti-CD3 and anti-CD28 co-stimulation, 48 hours, 0.3 μM inhibitor, fold change over baseline
Measurement Kind: fold induction at 0.3 µM

Some molecules with known fold induction at 0.3 µM results, for comparison:
* Cn1cnnc1C[C@]1(c2cccc(N3Cc4c(cc(CN5CCC[C@H](C(F)(F)F)C5)cc4C(F)(F)F)C3=O)c2)C[C@H](C#N)C1 [Compound 14] | 15 to 20
* Cn1cnnc1C[C@]1(c2cccc(N3Cc4c(cc(CN5CCCCC(C)(F)C5)cc4C(F)(F)F)C3=O)c2)C[C@H](C#N)C1 (stereo partly shown) [Compound 26] | ≤ 15
* C[C@@H]1CN(Cc2cc(C(=O)Nc3cccc([C@]4(Cc5nncn5C)C[C@@H](C#N)C4)c3)nc(C3CC3)n2)CCC1(F)F [Compound 57] | 15 to 20

Q) Given C[C@H]1CCCN(Cc2cc3c(c(C4CC4)n2)CN(c2cccc([C@]4(Cc5nncn5C)C[C@@H](C#N)C4)c2)C3=O)C1 [Compound 40] , state its recorded fold induction at 0.3 µM.
A) ≤ 15

Q) How about this molecule: Cn1cnnc1C[C@]1(c2cccc(N3Cc4c(cc(CN5CC6COC(C6)C5)cc4C(F)(F)F)C3=O)c2)C[C@H](C#N)C1 (stereo partly shown) [Compound 38]
A) ≤ 15
